Hey, just so you know, these numbers are from patent US12544378B2.

# experimentalDetails: Absorption of amorphous solid dispersion HP-55 (1:3), rat pharmacokinetics (PK) method (Example 12)
# Format: in vivo
# conditionContext: whole blood, Wistar rats, female, IV, 1 mg/kg, solution in DMSO:10% HP-β-CD PBS (1:9)
reportedMetric: AUC(0-inf)

GET /values?readout=AUC(0-inf)&item= O=C(c1cc(Cn2c(=O)[nH]c(=O)c3c(F)cccc32)ccc1F)N1CCN(c2ncccn2)CC1
1290 ng·h/mL

---

# experimentalDetails: Absorption of amorphous solid dispersion HP-55 (1:3), mouse pharmacokinetics (PK) method (Example 11)
# Assay type: in vivo
# conditionContext: whole blood, mice, IV, 1 mg/kg, solution in DMSO:10% HP-β-CD PBS (1:9)
reportedMetric: AUC(0-inf)

GET /values?readout=AUC(0-inf)&item= O=C(c1cc(Cn2c(=O)[nH]c(=O)c3c(F)cccc32)ccc1F)N1CCN(c2ncccn2)CC1
997 ng·h/mL

---

# experimentalDetails: Absorption of amorphous solid dispersion HP-55 (1:3), rat pharmacokinetics (PK) method (Example 12)
# Format: in vivo
# conditionContext: whole blood, Wistar rats, male, IV, 1 mg/kg, solution in DMSO:10% HP-β-CD PBS (1:9)
reportedMetric: half-life (min)
Give the number; min is assumed, so skip it.

GET /values?readout=half-life&item= O=C(c1cc(Cn2c(=O)[nH]c(=O)c3c(F)cccc32)ccc1F)N1CCN(c2ncccn2)CC1
51

---

# experimentalDetails: Absorption of amorphous solid dispersion HP-55 (1:3), mouse pharmacokinetics (PK) method (Example 11)
# Format: in vivo
# conditionContext: whole blood, mice, IV, 1 mg/kg, solution in DMSO:10% HP-β-CD PBS (1:9)
reportedMetric: half-life
Put down the number, then write its unit next to it.

GET /values?readout=half-life&item= O=C(c1cc(Cn2c(=O)[nH]c(=O)c3c(F)cccc32)ccc1F)N1CCN(c2ncccn2)CC1
32.7 min

---

# experimentalDetails: Absorption of amorphous solid dispersion HP-55 (1:3), rat pharmacokinetics (PK) method (Example 12)
# Assay type: in vivo
# conditionContext: whole blood, Wistar rats, female, IV, 1 mg/kg, solution in DMSO:10% HP-β-CD PBS (1:9)
reportedMetric: AUC(0-t) (ng·h/mL)
Give the number; ng·h/mL is assumed, so skip it.

GET /values?readout=AUC(0-t)&item= O=C(c1cc(Cn2c(=O)[nH]c(=O)c3c(F)cccc32)ccc1F)N1CCN(c2ncccn2)CC1
1250

---

# experimentalDetails: Absorption of amorphous solid dispersion HP-55 (1:3), rat pharmacokinetics (PK) method (Example 12)
# Assay type: in vivo
# conditionContext: whole blood, Wistar rats, female, IV, 1 mg/kg, solution in DMSO:10% HP-β-CD PBS (1:9)
reportedMetric: Cmax (ng/mL)
Give the number; ng/mL is assumed, so skip it.

GET /values?readout=Cmax&item= O=C(c1cc(Cn2c(=O)[nH]c(=O)c3c(F)cccc32)ccc1F)N1CCN(c2ncccn2)CC1
618
